Numbers sourced from the supplement of paper PMC9694430.

Kindly supply the reported thermal shift delta Tm values for the records listed here.
System: LOC_OS04G35114-cb001;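 further: purified Escherichia coli-expressed rice kinase domain construct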
experiment.description: thermal shift delta Tm vs DMSO control; higher = stronger stabilization (binding)
assay.setup: 12.5 µM; protein concentration 2 µM
State just the number; it will be interpreted in °C.

// field: thermal shift delta Tm; key: O=C(Nc1nc2cccc(-c3ccc(CN4CCS(=O)(=O)CC4)cc3)n2n1)C1CC1 [Filgotinib (GLPG0634)] ; value = 1.37

// field: thermal shift delta Tm; key: O=C(NOC[C@H](O)CO)c1ccc(F)c(F)c1Nc1ccc(I)cc1F ; value = -0.05

// field: thermal shift delta Tm; key: COCC(=O)NC/C=C/c1ccc2ncnc(Nc3ccc(Oc4ccc(C)nc4)c(C)c3)c2c1 ; value = 1.94

// field: thermal shift delta Tm; key: COc1cc(OC)c(/C=C/S(=O)(=O)Cc2ccc(OC)c(NCC(=O)O)c2)c(OC)c1 ; value = 0.47

// field: thermal shift delta Tm; key: Cc1cc(Nc2cc(N3CCN(C)CC3)nc(/C=C/c3ccccc3)n2)n[nH]1 [ENMD-2076 L-(+)-Tartaric acid] ; value = 6.49

// field: thermal shift delta Tm; key: CCN(CC)CCCCNc1ncc2cc(-c3cc(OC)cc(OC)c3)c(NC(=O)NC(C)(C)C)nc2n1 ; value = 0.79

// field: thermal shift delta Tm; key: Cc1cnc(Nc2ccc(N3CCN(C)CC3)cc2)nc1Nc1cccc(S(=O)(=O)NC(C)(C)C)c1 ; value = 3.61

// field: thermal shift delta Tm; key: Cc1ccc(C(=O)Nc2ccc(Oc3cc4cnn(C)c4cc3-c3cn[nH]c3)c(F)c2)c(=O)n1-c1ccc(F)cc1 ; value = 0.73

// field: thermal shift delta Tm; key: Cc1ccc(C(=O)Nc2cccc(C(F)(F)F)c2)cc1Nc1nc(-c2cccnc2)nc2c1cnn2C ; value = 0.29

// field: thermal shift delta Tm; key: O=C(Nc1cccc(C(F)(F)F)c1)c1cccc2cc(Oc3cc(CO)ncn3)ccc12 ; value = 0.55

// field: thermal shift delta Tm; key: COc1ccc([C@@H]2OC[C@H]3[C@@H]2CO[C@@H]3c2ccc(O[C@@H]3O[C@H](CO)[C@@H](O)[C@H](O)[C@H]3O)c(OC)c2)cc1OC [Forsythin] ; value = -0.23

// field: thermal shift delta Tm; key: CN1CCC(COc2cnc(-c3cccc(Cn4nc(-c5cccc(C#N)c5)ccc4=O)c3)nc2)CC1 ; value = 1.33

// field: thermal shift delta Tm; key: O=c1c(O)c(-c2ccc(O)c(O)c2)oc2cc(O)cc(O)c12 [Quercetin] ; value = 4.71

// field: thermal shift delta Tm; key: COC1(c2sc3c(N4CCOCC4)nc(-c4cnc(N)nc4)nc3c2C)COC1 ; value = 2.13

// field: thermal shift delta Tm; key: FC(F)(F)c1ccc(CNc2ccc(Cc3c[nH]c4ncc(Cl)cc34)cn2)cn1 [Pexidartinib (PLX3397)] ; value = 9.82

// field: thermal shift delta Tm; key: O=C(Nc1cccc(Nc2ncc(Br)c(NCCc3cnc[nH]3)n2)c1)N1CCCC1 ; value = 5.16

// field: thermal shift delta Tm; key: Cc1nc(Nc2n[nH]c3c2CN(C(=O)N[C@H](CN(C)C)c2ccccc2)C3(C)C)c2sccc2n1 ; value = 3.07

====

System: LOC_OS04G35114-cb001;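 further: purified Escherichia coli-expressed rice kinase domain construct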
experiment.description: thermal shift delta Tm vs DMSO control; higher = stronger stabilization (binding)
assay.setup: 12.5 µM; protein concentration 2 µM
quantity.name: thermal shift delta Tm (°C)
State just the number; it will be interpreted in °C.

// field: thermal shift delta Tm; key: Cn1sc(=O)n(Cc2ccccc2)c1=O ; value = 0.63

// field: thermal shift delta Tm; key: CS(=O)(=O)c1cccc(CNc2nc(Nc3ccc4c(c3)CCC(=O)N4)ncc2C(F)(F)F)c1 ; value = 3.71

// field: thermal shift delta Tm; key: Cc1cc(Nc2ncnc3ccc(-c4ccc(CNCCS(C)(=O)=O)o4)cc23)ccc1Oc1ccn2ncnc2c1 ; value = 4.39

// field: thermal shift delta Tm; key: c1cncc(CN2CCC(n3ncc4c(N5CCOCC5)nc(-c5ccc6[nH]ccc6c5)nc43)CC2)c1 ; value = 0.3

// field: thermal shift delta Tm; key: CNC(=O)c1cc(COc2nnc(Nc3ccc(Cl)cc3)c3ccoc23)ccn1 ; value = 0.7
